The measured values listed here are drawn from PubChem BioAssay (NCI).

- Tested on: HL-60(TB) leukemia
- ASSAY NAME: NCI tumour cell line growth inhibition, 48 h
OBSERVATION TYPE: TGI

q: Quick one: TGI of CCc1nc2ccc(NCCN(C)C)c3c(=O)c4ccccc4n1c23 ?
a: 8.68 µM

q: How about CCCC(CCN)(CCN)[N+](=O)[O-] ?
a: > 100 µM

q: How about CC(=O)O[C@H]1CC[C@@]2(C)C(=CC[C@@H]3C2CC[C@]2(C)Nc4nc5ccccc5cc4CC32)C1 (stereo partly specified) ?
a: 17.7 µM

q: How about CC(=N\N)/C(C)=N/N=C(C)/C(C)=N/N=C(C)/C(C)=N/N ?
a: > 100 µM

q: How about COc1nnc2ccc(N3CCC(c4ccc(OCCN5CCN(C)C(=O)[C@H]5C)cc4)CC3)nn12 ?
a: > 100 µM

q: How about CCOC(=O)N(c1ccccc1)N(CC)C(=O)/C(C)=N/Nc1ccc([N+](=O)[O-])cc1 ?
a: 35.8 µM

q: How about COc1ccc(N=N/C(C(=O)C(F)(F)F)=C(\O)c2ccc(Cl)cc2)cc1 ?
a: 39.4 µM

q: How about COc1cc2c(=O)[nH]c3cc([N+](=O)[O-])ccc3c2cc1[N+](=O)[O-] ?
a: > 100 µM

q: How about COc1cc(-c2nn(-c3cccc(NC(=O)c4ccc(Cl)c(C(F)(F)F)c4)c3)cc2-c2ccncc2)ccc1Cl ?
a: > 32.5 µM

q: How about O=C1c2ccccc2C(=O)c2c(OCCOCCO)cccc21 ?
a: > 100 µM

q: How about O=C1Cc2cc(C(=O)NC3C[C@H]4CC[C@@H](C3)N4S(=O)(=O)CC3CCN(CCCC(F)(F)F)CC3)c(Cl)cc2N1 (stereo partly specified) ?
a: > 100 µM

====

- Test system: K-562 leukemia
- ASSAY NAME: NCI tumour cell line growth inhibition, 48 h
OBSERVATION TYPE: TGI

q: Fill in the recorded TGI for this compound, with K-562 leukemia as test system: CN(C)/N=C1\CC(c2ccccc2)C(C#N)(C#N)C1(C#N)C#N (configuration not stated)
a: > 100 µM

q: How about CCOC(=O)N(c1ccccc1)N(CC)C(=O)/C(C)=N/Nc1ccc([N+](=O)[O-])cc1 ?
a: 38.1 µM

q: How about Nc1ncnc2c1ncn2C1CC(OCc2ccccc2[N+](=O)[O-])C(CO)O1 (configuration not stated) ?
a: > 50 µM

q: How about c1cc2c(cn1)Nc1ccncc1S2 ?
a: > 100 µM

q: How about CN(C)c1cccc(NC2=NCCO2)c1 ?
a: > 100 µM

q: How about CC[n+]1c(/C=C/C=C2\N(C)c3ccccc3C2(C)C)sc2ccccc21 ?
a: 9.43 µM

q: How about COc1cc(C2c3cc4c(cc3OC(N3CCNCC3)C2C)OCO4)cc(OC)c1OC (configuration not stated) ?
a: 10.9 µM

q: How about NC(=O)NC1C(C(N)=O)N(Cc2ccccc2)C(=O)N1Cc1ccccc1 (configuration not stated) ?
a: > 100 µM

q: How about CCc1ccccc1NNc1cc(=O)[nH]c(=O)[nH]1 ?
a: > 100 µM

q: How about CN(CCCNC(=O)CCOCCOCCOCCNC(=O)Cc1ccc2ccc3cccc4ccc1c2c34)CCCNc1cc(-c2ccc3ccccc3c2)nc2ccccc12 ?
a: 0.146 µM

q: How about COc1cc2c3c(n(C)c(=O)c2cc1OC)-c1ccc(C#N)cc1C3=O ?
a: > 100 µM

q: How about CN(C)C(=S)SCC(=O)Nc1ccccc1 ?
a: > 100 µM

q: How about CC(=O)O[C@H]1CC[C@@]2(C)C(=CC[C@@H]3C2CC[C@]2(C)Nc4nc5ccccc5cc4CC32)C1 (some centres not stated) ?
a: 11.6 µM

q: How about CN(Cc1cnc2nc(N)nc(N)c2n1)c1ccc(C(=O)NC(CCC(=O)O)C(=O)O)cc1Br (configuration not stated) ?
a: > 100 µM

q: How about Cn1c(-c2c(N)n(CCCN3CCOCC3)c3nc(C#N)c(C#N)nc23)nc2ccccc21 ?
a: > 74.7 µM

q: How about Nc1ncnc2c1ncn2C1OC(CO)C(O)C1N (configuration not stated) ?
a: > 100 µM

q: How about C=CCOCn1cc(C)c(=O)[nH]c1=O ?
a: > 100 µM

q: How about O=C1NC(=NCCCc2ccccc2)S/C1=C\c1ccc2ncccc2c1 ?
a: > 25 µM

q: How about O=C(NNc1nc(-c2ccccc2)cs1)C(F)(F)F ?
a: 93.5 µM

q: How about CC(SC(=O)Nc1ccc(N=Nc2ccccc2)cc1)C(=O)O (configuration not stated) ?
a: > 100 µM

q: How about COc1cc2cc(Oc3ccc(NC(=O)Nc4ccc(Cl)c(Cl)c4)cc3)c(C)nc2cc1OC ?
a: > 100 µM

q: How about COC(=O)c1ccc(NC(=O)Oc2ccc(N(CCCl)CCCl)cc2)cc1 ?
a: > 100 µM

====

Would you mind telling me the reported TGI of each entry?
- System: LOX IMVI melanoma
- ASSAY NAME: NCI tumour cell line growth inhibition, 48 h

q: Quick one: TGI of COC(OC)[C@@H]1OC[C@@H](O)[C@@H]1n1cnc2c(N)ncnc21 ?
a: > 100 µM

q: How about Cc1c(/C=N/N(C)C)oc2c1cc(O)c1ncccc12 ?
a: 45.2 µM

q: How about CCSc1c2ccccc2c(-c2nc(F)nc(F)n2)n1CCc1ccccc1 ?
a: > 100 µM

q: How about NC(=O)NC1C(C(N)=O)N(Cc2ccccc2)C(=O)N1Cc1ccccc1 (stereo not given) ?
a: > 100 µM

q: How about COc1nnc2ccc(N3CCC(c4ccc(OCCN5CCN(C)C(=O)[C@H]5C)cc4)CC3)nn12 ?
a: 4.56 µM

====

Would you mind telling me the reported TGI of each entry?
- System: UACC-62 melanoma
- ASSAY NAME: NCI tumour cell line growth inhibition, 48 h
Provide only the numeric value, understood in µM.

q: Quick one: TGI of CCOC(=O)N(c1ccccc1)N(CC)C(=O)/C(C)=N/Nc1ccc([N+](=O)[O-])cc1 ?
a: 26.8

q: How about CN(CCCNC(=O)CCOCCOCCOCCNC(=O)Cc1ccc2ccc3cccc4ccc1c2c34)CCCNc1cc(-c2ccc3ccccc3c2)nc2ccccc12 ?
a: 4.55

q: How about C[C@H](C/C=C/C(C)(C)O)[C@H]1CC[C@@]2(C)[C@@H]3CC[C@H]4C(C)(C)[C@@H](O)CC[C@@]45C[C@@]35CC[C@]12C ?
a: 56

q: How about CC(=O)[CH-]C(=O)c1ccccc1.CC(=O)[CH-]C(=O)c1ccccc1.C[C@]12CCC(=O)C=C1CC[C@@H]1C2CC[C@@]2(C)C1CC[C@]2(C)[O-].C[C@]12CCC(=O)C=C1CC[C@@H]1C2CC[C@@]2(C)C1CC[C@]2(C)[O-].Cl.[Ti+4] (some centres undefined) ?
a: 42.9

q: How about C[Si](C)(C)C1=C([Si](C)(C)C)C(Cl)(Cl)C1=O ?
a: 7.69

====

Would you mind telling me the reported log10 TGI of each entry?
- Test system: T-47D breast
- ASSAY NAME: NCI tumour cell line growth inhibition, 48 h
Log10 applied to TGI; unit prior to transform: µM.

q: Fill in the recorded log10 TGI for this compound, with T-47D breast as test system: O=C1NC(=NCCCc2ccccc2)S/C1=C\c1ccc2ncccc2c1
a: 1.09

q: How about CN1CCN(CCCOc2cccc3nc(Nc4ccc(Cl)c(C(F)(F)F)c4)ccc23)CC1 ?
a: 0.66

q: How about CN(CCCNC(=O)CCOCCOCCOCCNC(=O)Cc1ccc2ccc3cccc4ccc1c2c34)CCCNc1cc(-c2ccc3ccccc3c2)nc2ccccc12 ?
a: 0.13

q: How about N#CC1c2ccccc2C=CN1C(=O)N(c1ccccc1)c1ccccc1 (stereo not given) ?
a: 0.65

q: How about NC(=S)c1c(N)n(C2OC(CO)C(O)C2O)c2ncnc(N)c12 (stereo not given) ?
a: 0.07

q: How about CCc1ccccc1NNc1cc(=O)[nH]c(=O)[nH]1 ?
a: 1.58

====

- System: HCT-15 colon
- ASSAY NAME: NCI tumour cell line growth inhibition, 48 h; in the data active = GI50 below about 0.43 µM; inactive = the rest
Pick one: active, inactive

q: For COc1cc2c(=O)[nH]c3cc([N+](=O)[O-])ccc3c2cc1[N+](=O)[O-] , what call appears in the results of this test?
a: inactive

q: How about COc1nnc2ccc(N3CCC(c4ccc(OCCN5CCN(C)C(=O)[C@H]5C)cc4)CC3)nn12 ?
a: active

q: How about CC(=O)[CH-]C(=O)c1ccccc1.CC(=O)[CH-]C(=O)c1ccccc1.C[C@]12CCC(=O)C=C1CC[C@@H]1C2CC[C@@]2(C)C1CC[C@]2(C)[O-].C[C@]12CCC(=O)C=C1CC[C@@H]1C2CC[C@@]2(C)C1CC[C@]2(C)[O-].Cl.[Ti+4] (stereo partly drawn) ?
a: inactive

q: How about O=C1NC(=NCCCc2ccccc2)S/C1=C\c1ccc2ncccc2c1 ?
a: inactive

q: How about N#CC1c2ccccc2C=CN1C(=O)N(c1ccccc1)c1ccccc1 (stereo not drawn) ?
a: inactive

q: How about CC(=O)[O][Hg][c]1c(C)c(C)cc(C)c1C ?
a: inactive

q: How about COc1cc2cc(Oc3ccc(NC(=O)Nc4ccc(Cl)c(Cl)c4)cc3)c(C)nc2cc1OC ?
a: inactive

q: How about COc1cc(-c2nn(-c3cccc(NC(=O)c4ccc(Cl)c(C(F)(F)F)c4)c3)cc2-c2ccncc2)ccc1Cl ?
a: inactive

q: How about Cc1cc(Cl)nc(N(CCCNc2ccnc3cc(Cl)ccc23)Cc2ccco2)n1 ?
a: inactive

q: How about CCCCCCCCCCCCCC[C@@H](O)[C@H]1CC[C@H]([C@H]2CC[C@H]([C@H](O)CCCCCC[C@@H](O)CC3=C[C@H](C)OC3=O)O2)O1 ?
a: inactive

q: How about CCN1CCN(C(=O)[C@]23CCC(C)(C)C[C@@H]2C2=CC[C@@H]4[C@@]5(C)C/C(=C/c6ccncc6)C(=O)C(C)(C)[C@@H]5CC[C@@]4(C)[C@]2(C)CC3)CC1 ?
a: inactive

q: How about Cc1nc2ccccc2c(/C=C/c2ccc(Cl)cc2)c1C(=O)/C=C/c1ccc(Cl)cc1 ?
a: inactive

q: How about COc1cc2c3c(n(C)c(=O)c2cc1OC)-c1ccc(C#N)cc1C3=O ?
a: inactive
